# System: THR alpha-LBD (Homo sapiens)
# Construct: except that THR alpha-LBD of a final concentration 0.25 nM was used; purchased Invitrogen PV4687
# Sequence (P10827 163-410 isoform P10827-2 limits assumed, other chains not shown): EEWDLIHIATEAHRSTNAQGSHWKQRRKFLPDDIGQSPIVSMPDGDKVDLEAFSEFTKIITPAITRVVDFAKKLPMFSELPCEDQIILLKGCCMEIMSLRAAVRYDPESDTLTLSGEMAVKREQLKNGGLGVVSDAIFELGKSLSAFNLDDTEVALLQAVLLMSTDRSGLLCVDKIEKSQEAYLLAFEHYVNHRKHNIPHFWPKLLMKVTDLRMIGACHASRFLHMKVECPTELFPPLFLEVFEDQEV
# Test: THR-α Coactivator Peptide Recruitment Assay (LanthaScreen TR-FRET)
# Format: biochemical
# Recorded Conditions: TR-FRET coactivator recruitment, THR alpha-LBD 0.25 nM; read-out: THRα EC50
# EC50 listing for each entry below

Task: Suppose we examine the compound O=c1[nH]c(=O)n(-c2cc(Cl)c(Oc3cc(S(=O)(=O)NC4CCC4)c(O)cn3)c(Cl)c2)nc1C(F)F ; what EC50 value has been reported?
Result: 2 to 200 nM

Task: Suppose we examine the compound CS(=O)(=O)N1CC[C@@H](NS(=O)(=O)c2cc(Oc3c(Cl)cc(-n4nc(C(F)F)c(=O)[nH]c4=O)cc3Cl)ccc2O)C1 ; what EC50 value has been reported?
Result: 200 to 1000 nM

Task: Suppose we examine the compound CNS(=O)(=O)c1cc(Oc2c(Cl)cc(-n3nc(C(F)F)c(=O)[nH]c3=O)cc2Cl)ncc1O ; what EC50 value has been reported?
Result: 2 to 200 nM

Task: Suppose we examine the compound O=C(NC1CC1)C1(NS(=O)(=O)c2cc(Oc3c(Cl)cc(-n4nc(C(F)F)c(=O)[nH]c4=O)cc3Cl)ccc2O)CC1 ; what EC50 value has been reported?
Result: 2 to 200 nM

Task: Suppose we examine the compound CS(=O)(=O)N1CC[C@H](NS(=O)(=O)c2cc(Oc3c(Cl)cc(-n4nc(C(F)F)c(=O)[nH]c4=O)cc3Cl)ccc2O)C1 ; what EC50 value has been reported?
Result: 200 to 1000 nM

###

# System: THR beta-LBD (Homo sapiens, UniProt P10828)
# Construct: THR beta-LBD (the final concentration is 0.5 nM) was added to the 384-well assay plate; purchased Invitrogen PV4686
# Sequence (P10828 217-461 limits assumed): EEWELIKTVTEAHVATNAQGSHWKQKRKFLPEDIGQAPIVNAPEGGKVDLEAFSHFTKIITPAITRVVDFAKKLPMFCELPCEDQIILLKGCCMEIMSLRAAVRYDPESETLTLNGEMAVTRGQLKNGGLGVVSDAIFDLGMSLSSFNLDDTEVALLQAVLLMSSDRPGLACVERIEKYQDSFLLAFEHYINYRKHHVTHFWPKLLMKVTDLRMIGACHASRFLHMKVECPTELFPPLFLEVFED
# Test: THR-β Coactivator Peptide Recruitment Assay (LanthaScreen TR-FRET)
# Format: biochemical
# Recorded Conditions: TR-FRET coactivator recruitment, THR beta-LBD 0.5 nM; read-out: THRβ EC50
# EC50 listing for each entry below

Compound | EC50
CNC(=O)C1(N[S@SP3](=O)(=O)c2cc(Oc3c(Cl)cc(-n4nc(C(F)(F)F)c(=O)[nH]c4=O)cc3Cl)ccc2O)CC1 | 20 to 100 nM

Task: Suppose we examine the compound CN(C)C(=O)N1CC(NS(=O)(=O)c2cc(Oc3c(Cl)cc(-n4nc(C(F)F)c(=O)[nH]c4=O)cc3Cl)ccc2O)C1 ; what EC50 value has been reported?
Result: 2 to 20 nM

Task: Suppose we examine the compound Cc1nn(-c2cc(Cl)c(Oc3cc(S(=O)(=O)N[C@H]4C[C@H](O)C4)c(O)cn3)c(Cl)c2)c(=O)[nH]c1=O ; what EC50 value has been reported?
Result: 20 to 100 nM

Task: Suppose we examine the compound O=c1[nH]c(=O)n(-c2cc(Cl)c(Oc3ccc(O)c(S(=O)(=O)NC4CC5(CC(O)C5)C4)c3)c(Cl)c2)nc1C(F)F (stereo not drawn) ; what EC50 value has been reported?
Result: 20 to 100 nM

Task: Suppose we examine the compound O=C(NC1CC1)C1(NS(=O)(=O)c2cc(Oc3c(Cl)cc(-n4nc(C(F)F)c(=O)[nH]c4=O)cc3Cl)ccc2O)CCC1 ; what EC50 value has been reported?
Result: 2 to 20 nM

Task: Suppose we examine the compound O=C(C1CC1)N1CCN(S(=O)(=O)c2cc(Oc3c(Cl)cc(-n4nc(C(F)F)c(=O)[nH]c4=O)cc3Cl)ccc2O)CC1 ; what EC50 value has been reported?
Result: 2 to 20 nM

###

# System: THR beta-LBD (Homo sapiens, UniProt P10828)
# Construct: THR beta-LBD (the final concentration is 0.5 nM) was added to the 384-well assay plate; purchased Invitrogen PV4686
# Test: THR-β Coactivator Peptide Recruitment Assay (LanthaScreen TR-FRET)
# Format: biochemical
# Recorded Conditions: TR-FRET coactivator recruitment, THR beta-LBD 0.5 nM; read-out: THRβ EC50
# EC50 listing for each entry below

Molecule | System | EC50
O=C(NC1CCCC1)C1(NS(=O)(=O)c2cc(Oc3c(Cl)cc(-n4nc(C(F)F)c(=O)[nH]c4=O)cc3Cl)ccc2O)CC1 | THR beta-LBD (Homo sapiens, UniProt P10828) | < 2 nM
N#C[C@H]1C[C@@H](NS(=O)(=O)c2cc(Oc3c(Cl)cc(-n4nc(C(F)F)c(=O)[nH]c4=O)cc3Cl)ccc2O)C1 | THR beta-LBD (Homo sapiens, UniProt P10828) | < 2 nM

Task: Suppose we examine the molecule O=C(NC1CC(F)(F)C1)c1cc(Oc2c(Cl)cc(-n3nc(C(F)(F)F)c(=O)[nH]c3=O)cc2Cl)ccc1O ; what EC50 value has been reported?
Result: 20 to 100 nM

Task: Suppose we examine the molecule O=c1[nH]c(=O)n(-c2cc(Cl)c(Oc3cc(S(=O)(=O)NC4CCCC4)c(O)cn3)c(Cl)c2)nc1C(F)F ; what EC50 value has been reported?
Result: < 2 nM

Task: Suppose we examine the molecule COCC1(NS(=O)(=O)c2cc(Oc3c(Cl)cc(-n4nc(C(F)F)c(=O)[nH]c4=O)cc3Cl)ncc2O)CC1 ; what EC50 value has been reported?
Result: 2 to 20 nM

Task: Suppose we examine the molecule CN1C[C@H](NS(=O)(=O)c2cc(Oc3c(Cl)cc(-n4nc(C(F)F)c(=O)[nH]c4=O)cc3Cl)ccc2O)CC1=O (single isomer, unassigned) ; what EC50 value has been reported?
Result: 20 to 100 nM

###

# System: THR alpha-LBD (Homo sapiens)
# Construct: except that THR alpha-LBD of a final concentration 0.25 nM was used; purchased Invitrogen PV4687
# Test: THR-α Coactivator Peptide Recruitment Assay (LanthaScreen TR-FRET)
# Type: biochemical
# Recorded Conditions: TR-FRET coactivator recruitment, THR alpha-LBD 0.25 nM
# Protocol: A time-resolved FRET (TR-FRET) assay was used to test representative compounds of the application. THR-β Coactivator Peptide Recruitment Assay were conducted by using Invitrogen's LanthaScreen™ TR-FRET Thyroid Receptor beta Assay Kit (Catalog no. PV4686). […] After a gentle mix and incubation at room temperature for 2 h, the signal was read on the EnVision Multilabel Plate Reader at wavelengths of 520 nm and 495 nm. […]
Recorded Metric: THRα Emax

# annotated cases, reported THRα Emax shown
Entry Smiles | Readout Value
O=c1[nH]c(=O)n(-c2cc(Cl)c(Oc3cc(S(=O)(=O)NC4CCOCC4)c(O)cn3)c(Cl)c2)nc1C(F)F | B (40~85)
O=c1[nH]c(=O)n(-c2cc(Cl)c(Oc3ccc(O)c(S(=O)(=O)N4CCC(O)CC4)c3)c(Cl)c2)nc1C(F)F | A (85~110)
O=C(N[C@H]1C[C@H](NS(=O)(=O)c2cc(Oc3c(Cl)cc(-n4nc(C(F)F)c(=O)[nH]c4=O)cc3Cl)ccc2O)C1)C1CC1 | B (40~85)
O=C(CNS(=O)(=O)c1cc(Oc2c(Cl)cc(-n3nc(C(F)F)c(=O)[nH]c3=O)cc2Cl)ccc1O)NC1CCC1 | B (40~85)

Task: Suppose we examine the molecule O=c1[nH]c(=O)n(-c2cc(Cl)c(S(=O)(=O)c3ccc(O)c(C4CCC4)c3)c(Cl)c2)nc1C(F)(F)F ; what THRα Emax value has been reported?
Result: B (40~85)

Task: Suppose we examine the molecule CS(=O)(=O)N1CC[C@H](NS(=O)(=O)c2cc(Oc3c(Cl)cc(-n4nc(C(F)F)c(=O)[nH]c4=O)cc3Cl)ccc2O)C1 ; what THRα Emax value has been reported?
Result: B (40~85)

Task: Suppose we examine the molecule O=C(NC1CCCC1)C1(NS(=O)(=O)c2cc(Oc3c(Cl)cc(-n4nc(C(F)F)c(=O)[nH]c4=O)cc3Cl)ccc2O)CC1 ; what THRα Emax value has been reported?
Result: A (85~110)

Task: Suppose we examine the molecule O=c1[nH]c(=O)n(-c2cc(Cl)c(Oc3cc(S(=O)(=O)NC4CC4)c(O)cn3)c(Cl)c2)nc1C(F)F ; what THRα Emax value has been reported?
Result: A (85~110)

Task: Suppose we examine the molecule CS(=O)(=O)[C@H]1CCN(S(=O)(=O)c2cc(Oc3c(Cl)cc(-n4nc(C(F)F)c(=O)[nH]c4=O)cc3Cl)ccc2O)C1 ; what THRα Emax value has been reported?
Result: B (40~85)

Task: Suppose we examine the molecule O=c1[nH]c(=O)n(-c2cc(Cl)c(Oc3cc(S(=O)(=O)NCC(F)F)c(O)cn3)c(Cl)c2)nc1C(F)F ; what THRα Emax value has been reported?
Result: A (85~110)

Task: Suppose we examine the molecule Cc1nn(-c2cc(Cl)c(Oc3cc(S(=O)(=O)N[C@@H]4CCOC4)c(O)cn3)c(Cl)c2)c(=O)[nH]c1=O ; what THRα Emax value has been reported?
Result: B (40~85)

Task: Suppose we examine the molecule O=c1[nH]c(=O)n(-c2cc(Cl)c(Oc3ccc(O)c(S(=O)(=O)N[C@H]4CCOC4)c3)c(Cl)c2)nc1C(F)F ; what THRα Emax value has been reported?
Result: A (85~110)
